target: HIF-1 (HIF-1alpha/HIF-1beta (ARNT) heterodimer) (UniProt Q16665;P27540 Q16665:1-826,P27540:2-789); test: competition; 2.5-fold molar excess; settings: protein: extract; tags: none (endogenous, nuclear extract)
Sequence (Q16665 whole entry, chain 1 of 2): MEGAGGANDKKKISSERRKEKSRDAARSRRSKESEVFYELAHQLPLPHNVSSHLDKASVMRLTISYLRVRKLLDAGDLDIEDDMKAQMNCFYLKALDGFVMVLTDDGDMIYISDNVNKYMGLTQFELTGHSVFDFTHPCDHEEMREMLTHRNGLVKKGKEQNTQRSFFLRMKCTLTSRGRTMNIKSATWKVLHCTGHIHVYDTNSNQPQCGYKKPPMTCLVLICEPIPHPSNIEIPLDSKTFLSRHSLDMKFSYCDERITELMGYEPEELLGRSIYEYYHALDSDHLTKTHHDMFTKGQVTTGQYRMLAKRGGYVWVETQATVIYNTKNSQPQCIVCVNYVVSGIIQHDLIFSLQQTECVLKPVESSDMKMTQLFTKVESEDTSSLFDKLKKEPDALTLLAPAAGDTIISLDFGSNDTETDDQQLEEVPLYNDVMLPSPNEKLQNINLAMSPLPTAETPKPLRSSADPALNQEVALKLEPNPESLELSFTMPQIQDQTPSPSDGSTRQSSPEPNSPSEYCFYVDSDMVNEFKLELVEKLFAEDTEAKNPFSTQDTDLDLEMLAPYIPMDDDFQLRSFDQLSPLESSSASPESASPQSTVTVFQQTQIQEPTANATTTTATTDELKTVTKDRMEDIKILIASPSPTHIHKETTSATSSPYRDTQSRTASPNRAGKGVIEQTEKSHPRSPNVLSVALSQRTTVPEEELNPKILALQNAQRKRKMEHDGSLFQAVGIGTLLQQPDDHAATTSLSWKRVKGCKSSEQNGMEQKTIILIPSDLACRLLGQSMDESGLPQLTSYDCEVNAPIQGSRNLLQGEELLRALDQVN
Sequence (P27540 2-789, chain 2 of 2): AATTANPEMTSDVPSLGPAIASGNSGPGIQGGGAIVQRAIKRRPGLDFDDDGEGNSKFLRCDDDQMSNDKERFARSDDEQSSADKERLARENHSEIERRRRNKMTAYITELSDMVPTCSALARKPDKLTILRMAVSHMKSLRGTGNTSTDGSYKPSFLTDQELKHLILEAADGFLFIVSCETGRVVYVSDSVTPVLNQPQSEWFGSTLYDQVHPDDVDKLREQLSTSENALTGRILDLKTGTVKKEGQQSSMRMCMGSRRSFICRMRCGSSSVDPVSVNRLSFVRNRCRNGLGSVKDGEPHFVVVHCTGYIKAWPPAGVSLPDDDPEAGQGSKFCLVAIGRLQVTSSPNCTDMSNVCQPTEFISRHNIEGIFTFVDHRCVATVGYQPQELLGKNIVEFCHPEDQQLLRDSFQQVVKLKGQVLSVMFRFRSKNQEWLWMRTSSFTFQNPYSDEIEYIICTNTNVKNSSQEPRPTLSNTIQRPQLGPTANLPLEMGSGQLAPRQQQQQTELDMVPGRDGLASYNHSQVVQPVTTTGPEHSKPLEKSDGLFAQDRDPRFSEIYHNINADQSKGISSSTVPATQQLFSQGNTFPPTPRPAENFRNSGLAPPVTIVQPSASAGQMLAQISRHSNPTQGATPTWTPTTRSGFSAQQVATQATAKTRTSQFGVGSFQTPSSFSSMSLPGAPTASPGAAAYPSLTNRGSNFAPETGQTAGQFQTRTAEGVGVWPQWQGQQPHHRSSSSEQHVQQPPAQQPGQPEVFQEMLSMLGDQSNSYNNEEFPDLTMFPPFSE
Binarize binding signal at 1 ratio; below is condition met, at or above is condition not met.

Recorded results for 6 binders are shown here.
- binder: "895/896 H3/H3 (dsDNA, PS at 3 linkages from 3' end, both strands) DNA 1: CACCAGCGTACGTGCCTCAGG DNA 2: CCTGAGGCACGTACGCTGGTG"
  class assignment: "condition not met"
- binder: "895/896 H3/PS (dsDNA, 895: PS at 3 linkages from 3' end; 896: full PS) DNA 1: CACCAGCGTACGTGCCTCAGG DNA 2: CCTGAGGCACGTACGCTGGTG"
  class assignment: "condition not met"
- binder: "895/896 H4/H4 (dsDNA, PS at 4 linkages from 3' end, both strands) DNA 1: CACCAGCGTACGTGCCTCAGG DNA 2: CCTGAGGCACGTACGCTGGTG"
  class assignment: "condition not met"
- binder: "895/896 H5/H5 (dsDNA, PS at 5 linkages from 3' end, both strands) DNA 1: CACCAGCGTACGTGCCTCAGG DNA 2: CCTGAGGCACGTACGCTGGTG"
  class assignment: "condition not met"
- binder: "895/896 PS/PO (dsDNA, 895: full PS; 896: unmodified) DNA 1: CACCAGCGTACGTGCCTCAGG DNA 2: CCTGAGGCACGTACGCTGGTG"
  class assignment: "condition met"
- binder: "895/896 H2/H2 (dsDNA, PS at 2 linkages from 3' end, both strands) DNA 1: CACCAGCGTACGTGCCTCAGG DNA 2: CCTGAGGCACGTACGCTGGTG"
  class assignment: "condition met"

Okay, now this binder:
input: Is the reported binding signal for 895/896 H5/PO (dsDNA, 895: PS at 5 linkages from 3' end; 896: unmodified) DNA 1: CACCAGCGTACGTGCCTCAGG DNA 2: CCTGAGGCACGTACGCTGGTG strictly below 1 ratio?
output: condition not met

Source listed as patent US20050215503.
